From: patent US20260091026A1

# System name: RIPK2 (KD)/XIAP (BIR2) (Homo sapiens, UniProt O43353)
# Construct: made in house; host or cells: baculovirus-infected Sf9 cells
# Sequence (O43353 1-310): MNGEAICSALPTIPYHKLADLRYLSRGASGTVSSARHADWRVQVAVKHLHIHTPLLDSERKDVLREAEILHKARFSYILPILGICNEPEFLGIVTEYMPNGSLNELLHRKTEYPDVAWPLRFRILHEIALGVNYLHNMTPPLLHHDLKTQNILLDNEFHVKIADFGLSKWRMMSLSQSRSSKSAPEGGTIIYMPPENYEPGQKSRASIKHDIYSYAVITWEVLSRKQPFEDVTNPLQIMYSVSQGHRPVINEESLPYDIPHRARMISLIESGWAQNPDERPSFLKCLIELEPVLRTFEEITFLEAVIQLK
# Test summary: RIPK2-XIAP binding competition PPI assay (TR-FRET)
# Stated conditions: 50 nM of GSK583 = -100% activity, read-out: PPI Amax
Provide the recorded Emax for the entries that follow.

For each of the items listed, what is its Emax?
1. CCn1nc(-c2cnc3cc(OC)c(S(=O)(=O)C(C)(C)C)cn23)cc1C(=O)NCc1ncccn1
2. COc1cc2ncc(-n3cc(NC(=O)[C@H]4C[C@H]4c4ccccc4)cn3)n2cc1S(=O)(=O)C(C)(C)C

Outgoing:
1. ≥ 80%
2. ≥ 80%

For each of the items listed, what is its Emax?
1. COc1cc2ncc(-c3cc(C(=O)NCc4ncccc4Cl)n(C)n3)n2cc1S(=O)(=O)C(C)(C)C
2. COc1cc2ncc(-n3cc(NC(=O)Cc4ccc(F)cc4Cl)cn3)n2cc1S(=O)(=O)C(C)(C)C
3. COc1cc2ncc(-c3cc(C(=O)NCc4cnn(C)c4)n(C)n3)n2cc1S(=O)(=O)C(C)(C)C
4. COc1cc2ncc(-c3cc(C(=O)N[C@@H](C)c4ccccc4)n(C)n3)n2cc1S(=O)(=O)C(C)(C)C
5. COc1cc2ncc(-c3cc(C(=O)NCc4cccnc4)n(C)n3)n2cc1S(=O)(=O)C(C)(C)C
6. COc1cc2ncc(-c3cc(NC(=O)Cc4ccccc4Cl)n(C)n3)n2cc1C1(F)CCN(C)CC1
7. COc1cc2ncc(-c3cc(C(=O)N[C@@H](C)C4CC4)n(C)n3)n2cc1S(=O)(=O)C(C)(C)C

Outgoing:
["≥ 80%", "≥ 80%", "≤ 30%", "≥ 80%", "55 to 80%", "≥ 80%", "30 to 55%"]

For each of the items listed, what is its Emax?
1. COc1cc2ncc(-c3cc(C(=O)NCc4nsc(C)n4)n(C)n3)n2cc1S(=O)(=O)C(C)(C)C
2. COc1cc2ncc(-c3cc(C(=O)N[C@H](C)c4ncccc4F)n(C)n3)n2cc1S(=O)(=O)C(C)(C)C
3. COc1cc2ncc(-c3cc(C(=O)NCc4nc(C)cs4)n(C)n3)n2cc1S(=O)(=O)C(C)(C)C
4. COc1cc2ncc(-c3cc(C(=O)N[C@H](C)c4ncccc4F)n(CCCO)n3)n2cc1S(=O)(=O)C(C)(C)C
5. CCn1nc(-c2cnc3cc(OCCO)c(S(=O)(=O)C(C)(C)C)cn23)cc1C(=O)N[C@H](C)c1ncccn1

Outgoing:
1: 55 to 80%; 2: ≥ 80%; 3: ≥ 80%; 4: ≥ 80%; 5: ≥ 80%

For each of the items listed, what is its Emax?
1. COc1cc2ncc(-c3cc(C(=O)N[C@H](C)C4CC4)n(C)n3)n2cc1S(=O)(=O)C(C)(C)C
2. COc1cc2ncc(-c3cc(C(=O)NCc4ccccc4)n(C)n3)n2cc1S(=O)(=O)C(C)(C)C
3. COc1cc2ncc(-c3cc(C(=O)NCc4nccc(C)n4)n(C)n3)n2cc1S(=O)(=O)C(C)(C)C
4. CNc1nccn2c(-c3cc(C(=O)N[C@H](C)c4ccccc4)n(C)n3)cnc12

Outgoing:
1: 30 to 55%; 2: ≥ 80%; 3: ≥ 80%; 4: 30 to 55%

For each of the items listed, what is its Emax?
1. COc1cc2ncc(-c3cc(C(=O)NCc4cccc(F)n4)n(C)n3)n2cc1S(=O)(=O)C(C)(C)C
2. C[C@H](NC(=O)c1cc(-c2cnc3cc(OCCO)c(S(=O)(=O)C(C)(C)C)cn23)nn1C)c1ncccc1Cl

Outgoing:
["≥ 80%", "55 to 80%"]

Incoming: For the compound shown here, CNc1nccn2c(-c3cc(C(=O)NCc4ccccc4)n(C)n3)cnc12 , give the reported Emax.
Outgoing: 55 to 80%

* * *

# System name: RIPK2 (KD)/XIAP (BIR2) (Homo sapiens)
# Test summary: RIPK2-XIAP binding competition PPI assay (TR-FRET)
# Stated conditions: GST-RIPK2 / His-XIAP (BIR2)-avi, 120 min at 23° C.
Provide the recorded IC50 for the entries that follow.

Consider the following illustrative entries.
COc1cc2ncc(-c3cc(C(=O)N[C@@H](C)c4ccn(C)n4)n(C)n3)n2cc1S(=O)(=O)C(C)(C)C	> 1000 nM
COc1cc2ncc(-c3cc(C(=O)N[C@H](C)c4ncccc4F)n(CCCO)n3)n2cc1S(=O)(=O)C(C)(C)C	10 to 100 nM
CCn1nc(-c2cnc3cc(OC)c(S(=O)(=O)C(C)(C)C)cn23)cc1C(=O)N[C@@H](C)c1ccn(C)n1	100 to 1000 nM

For each of the items listed, what is its IC50?
1. COc1cc2ncc(-c3cc(C(=O)NCc4ccccc4Cl)n(C)n3)n2cc1S(=O)(=O)C(C)(C)C
2. COc1cc2ncc(-n3cc(NC(=O)C4(C)CCCCC4)cn3)n2cc1S(=O)(=O)C(C)(C)C
3. COc1cc2ncc(-c3cc(C(=O)N[C@H](C)c4ncc(F)cn4)n(C)n3)n2cc1S(=O)(=O)C(C)(C)C

Outgoing:
10 to 100 nM
> 1000 nM
> 1000 nM

* * *

# System name: RIPK2 (KD)/XIAP (BIR2) (Homo sapiens, UniProt O43353)
# Construct: made in house; host or cells: baculovirus-infected Sf9 cells
# Test summary: RIPK2-XIAP binding competition PPI assay (TR-FRET)
# Stated conditions: 50 nM of GSK583 = -100% activity, read-out: PPI Amax
Provide the recorded Emax for the entries that follow.

COc1cc2ncc(-c3cc(C(=O)NCc4nccs4)n(C)n3)n2cc1S(=O)(=O)C(C)(C)C	≥ 80%
C[C@@H](NC(=O)c1cc(-c2cnc3cc(OCCO)c(S(=O)(=O)C(C)(C)C)cn23)nn1C)c1ncccn1	≥ 80%
COc1cc2ncc(-n3cc(C(=O)NCc4ccccc4Cl)cn3)n2cc1S(=O)(=O)C(C)(C)C	≥ 80%
COc1cc2ncc(-c3cc(C(=O)N[C@H](C)c4ccccn4)n(C)n3)n2cc1S(=O)(=O)C(C)(C)C	≥ 80%
COc1cc2ncc(-n3cc(NC(C)=O)cn3)n2cc1S(=O)(=O)C(C)(C)C	≤ 30%

For each of the items listed, what is its Emax?
1. COc1cc2ncc(-c3cc(C(=O)N[C@H](CO)c4ccccc4)n(C)n3)n2cc1S(=O)(=O)C(C)(C)C
2. COc1cc2ncc(-n3cc(NC(=O)OC(C)(C)C)cn3)n2cc1S(=O)(=O)C(C)(C)C
3. COc1cc2ncc(-c3cc(C(=O)N[C@@H]4C[C@H]4c4ccccc4)n(C)n3)n2cc1S(=O)(=O)C(C)(C)C (single isomer, unassigned)
4. COc1cn2ncc(-c3cc(C(=O)N[C@H](C)c4ncccc4F)n(C)n3)c2cc1S(=O)(=O)C(C)(C)C
5. CCn1nc(-c2cnc3cc(OCCO)c(S(=O)(=O)C(C)(C)C)cn23)cc1C(=O)N[C@H](C)c1cc(C)sn1

Outgoing:
1. ≤ 30%
2. ≥ 80%
3. ≥ 80%
4. ≥ 80%
5. ≥ 80%

For each of the items listed, what is its Emax?
1. C[C@@H](NC(=O)c1cc(-c2cnc3cc(OCCO)c(S(=O)(=O)C(C)(C)C)cn23)nn1C1COC1)c1ncccc1F
2. COc1cc2ncc(-c3cc(C(=O)N[C@@H](C)c4ncccc4F)n(C)n3)n2cc1S(=O)(=O)C(C)(C)C
3. COc1cc2ncc(-c3cc(NC(=O)O[C@H](C)c4ccccc4)n(C)n3)n2cc1S(=O)(=O)C(C)(C)C
4. CCn1nc(-c2cnc3cc(OCCO)c(S(=O)(=O)C(C)(C)C)cn23)cc1C(=O)N[C@@H](C)c1cc(C)sn1

Outgoing:
1: ≥ 80%; 2: 55 to 80%; 3: ≥ 80%; 4: ≥ 80%

* * *

# System name: RIPK2 (KD)/XIAP (BIR2) (Homo sapiens, UniProt O43353)
# Construct: made in house; host or cells: baculovirus-infected Sf9 cells
# Test summary: RIPK2-XIAP binding competition PPI assay (TR-FRET)
# Stated conditions: 50 nM of GSK583 = -100% activity, read-out: PPI Amax
Quantity kind: Emax

For each of the items listed, what is its Emax?
1. C[C@@H](CO)COc1cc2ncc(-c3cc(NC(=O)Cc4ccccc4Cl)n(C)n3)n2cc1S(=O)(=O)C(C)(C)C [Example 188]
2. COc1cc2ncc(-c3cc(C(=O)N[C@H](C)c4ncccn4)n(C4CC4)n3)n2cc1S(=O)(=O)C(C)(C)C [Example 100]
3. COc1cc2ncc(-c3cc(C(=O)NCc4ccn(C)n4)n(C)n3)n2cc1S(=O)(=O)C(C)(C)C [Example 24]

Outgoing:
1: ≥ 80%; 2: ≥ 80%; 3: ≥ 80%
